Assignment: determine reported neutralization IC50 for the given binders.
molecular target: HIV-1 Env of Q842.d12 (HIV-1); assay: cell-based or functional assay

Required: neutralization IC50, one value per binder below.
1. CAP256-VRC26.12 (antibody, V domains shown) VH: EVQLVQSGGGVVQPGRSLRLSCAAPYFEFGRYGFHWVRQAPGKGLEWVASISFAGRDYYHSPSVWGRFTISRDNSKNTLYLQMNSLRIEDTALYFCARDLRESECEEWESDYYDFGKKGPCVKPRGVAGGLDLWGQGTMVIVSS VL: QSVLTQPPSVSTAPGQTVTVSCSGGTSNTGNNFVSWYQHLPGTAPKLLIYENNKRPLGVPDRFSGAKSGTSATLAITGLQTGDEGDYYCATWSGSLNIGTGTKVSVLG
2. CAP256-VRC26.02 (antibody, V domains shown) VH: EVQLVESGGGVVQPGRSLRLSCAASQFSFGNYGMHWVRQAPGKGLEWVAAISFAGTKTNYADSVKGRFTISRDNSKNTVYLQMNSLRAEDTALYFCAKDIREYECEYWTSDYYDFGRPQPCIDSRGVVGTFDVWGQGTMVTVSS VL: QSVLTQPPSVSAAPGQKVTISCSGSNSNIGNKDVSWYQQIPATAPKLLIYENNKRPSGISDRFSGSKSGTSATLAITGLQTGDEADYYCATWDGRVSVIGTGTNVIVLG
3. CAP256-VRC26.01 (antibody, V domains shown) VH: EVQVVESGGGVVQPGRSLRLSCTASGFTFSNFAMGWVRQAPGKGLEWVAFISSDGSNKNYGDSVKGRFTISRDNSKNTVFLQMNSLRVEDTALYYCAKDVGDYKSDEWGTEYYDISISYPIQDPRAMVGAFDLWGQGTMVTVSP VL: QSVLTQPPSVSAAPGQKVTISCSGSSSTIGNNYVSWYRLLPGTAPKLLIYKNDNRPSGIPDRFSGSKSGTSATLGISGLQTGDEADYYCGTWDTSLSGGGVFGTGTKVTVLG

Response line:
1. > 50 µg/mL
2. > 50 µg/mL
3. > 50 µg/mL

The values you see were collected from patent US20200199204A1.
